These data points were gathered from patent EP4707300A1.

experimental-target: human IL-15 (hIL-15+hIL-15Rα complex), tag on IL-15Rα not stated (human (homo sapiens), UniProt P40933 49-162; Q13261 31-128)
Sequence (P40933 49-162, chain 1 of 2): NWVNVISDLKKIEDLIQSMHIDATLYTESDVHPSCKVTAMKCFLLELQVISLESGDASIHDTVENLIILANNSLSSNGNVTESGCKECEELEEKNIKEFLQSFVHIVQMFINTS
Sequence (Q13261 31-128, chain 2 of 2): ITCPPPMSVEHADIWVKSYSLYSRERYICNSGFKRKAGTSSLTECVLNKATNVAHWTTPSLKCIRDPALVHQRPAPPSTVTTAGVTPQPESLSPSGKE
test-summary: cell-based or functional assay
measured-property: IC50(nM), inhibition of IL-15-induced SEAP secretion by HEK-Blue IL-2 cells

binder	uom	test-value
anti-human IL-15 monoclonal antibody R2H2VH+R22F11VK (antibody, V domains shown, Mutant of R1A3; it was captured by anti-human IgG (Fc) in SPR and detected with anti-human IgG in ELISA, so a human Fc is implied; also called R2H2VH+R22FVK) VH: EVQLVQSGAEVKKPGESLKISCKVSGYFFTTYWIGWVRQMPGKGLEYMGIIYPGDSDTRYSPSFQGQVTISADKSISTAYLQWSSLKASDTAMYYCARGGHWNSFDTWGQGTLVTVSS VL: EIVLTQSPGTLSLSPGERATLSCRASQSVIGSYLAWYQQKPGQAPRLLIYSASKLASGIPDRFSGSGSGTDFTLTISRLEPEDFAVYYCQQHYSTPGTFGQGTKVEIK	nM	0.397
anti-human IL-15 monoclonal antibody R26H10 (antibody, V domains shown, Humanized mutant of R6E11 with a fully human light chain; captured by anti-human IgG (Fc) in SPR and detected with anti-human IgG in ELISA) VH: QVTLKESGPVLVKPTETLTLTCTVSGFSLTTYAVHWIRQPPGKALEWLGVIWGAGSTDYNPSFMSRLTISKDTSKSQVVLTMTNMDPVDTATYYCAKNAAYYVMDYWGQGTTVTVSS VL: EIVLTQSPGTLSLSPGERATLSCRASQSVIYSYLAWYQQKPGQAPRLLIYAASKLASGIPDRFSGSGSGTDFTLTISRLEPEDFAVYYCQQRASYPLTFGQGTKVEIK	nM	0.646
anti-human IL-15 monoclonal antibody R4G4VH+R22F11VK (antibody, V domains shown, Mutant of R1A3; it was captured by anti-human IgG (Fc) in SPR and detected with anti-human IgG in ELISA, so a human Fc is implied; also called R4G4VH+R22FVK) VH: EVQLVQSGAEVKKPGESLKISCKVSGYFFTTYWIGWVRQMPGKGLEYMGIIYPGDSDTRYSPSFQGQVTISADKSISTAYLQWSSLKASDTAMYYCARGGHWNAFDIWGQGTLVTVSS VL: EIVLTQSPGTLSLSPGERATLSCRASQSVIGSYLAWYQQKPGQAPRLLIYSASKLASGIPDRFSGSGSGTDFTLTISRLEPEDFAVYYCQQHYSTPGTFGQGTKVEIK	nM	0.312
anti-human IL-15 monoclonal antibody R1A3 (antibody, V domains shown, Found from a fully human Fab phage library) VH: EVQLVQSGAEVKKPGESLKISCKVSGYFFTTYWIGWVRQMPGKGLEYMGIIYPGDSDTRYSPSFQGQVTISADKSISTAYLQWSSLKASDTAMYYCARGGHWNAFDFWGQGTLVTVSS VL: EIVLTQSPGTLSLSPGERATLSCRASQSVSSSYLAWYQQKPGQAPRLLIYGASRRATGIPDRFSGSGSGTDFTLTISRLEPEDFAVYYCQQFDASQTFGQGTKLEISR	nM	0.634
